- testTarget: Radiation Leukemia Virus reverse transcriptase (Radiation murine leukemia virus, UniProt P11227)
- Construct: the reverse transcriptase of Radiation Leukemia Virus; endogenous in cells
- methodDescription: Radiation Leukemia Virus reverse transcriptase assay, supernatants from infected AQR cells (Examples 4 and 9)
- Assay type: biochemical
- appliedConditions: 0.5 h; 0.5 micrograms; Table VIII
# label = YES if inhibition at 0.0005 mg >= 80% else NO

O=c1c2ccccc2c2c3c1c(O)cc(O)c3c1c(O)cc(O)c3c(=O)c4ccccc4c2c31 [WIS-2, Tetrahydroxy-dibenzoperylene-dione]    YES

Q: Could you tell me if the measured inhibition at 0.0005 mg of O=c1c2c(O)ccc3c4ccc(O)c5c(=O)c6c(O)cc(O)c7c8c(O)cc(O)c1c8c(c23)c(c54)c67 [WIS-3, desmethylhypericin] reaches 80% or more?
Result: YES

Q: Does the compound Cc1cc(O)c2cc3c(O)cc(O)c4c5c(O)cc(O)c6cc7c(O)cc(C)c8c1c2c(c34)c(c78)c65 [WIS-5, desoxyhypericin] have recorded inhibition at 0.0005 mg that is 80% or more?
Result: NO

Q: Is it the case that CC(=O)Oc1cc(C)c2c3c(C)cc(OC(C)=O)c4cc5c(OC(C)=O)cc(OC(C)=O)c6c7c(OC(C)=O)cc(OC(C)=O)c8cc1c2c(c87)c(c43)c56 [WIS-4, desoxohypericinhexaacetate] has inhibition at 0.0005 mg reaching or exceeding 80%?
Result: NO

* * *

- testTarget: Radiation Leukemia Virus reverse transcriptase (Radiation murine leukemia virus)
- Construct: the reverse transcriptase of Radiation Leukemia Virus; endogenous in cells
- methodDescription: Radiation Leukemia Virus reverse transcriptase assay, supernatants from infected AQR cells (Examples 4 and 9)
- Type: biochemical
- appliedConditions: 0.5 h; 2 micrograms; Table VIII
experimentalEndpoint: inhibition at 0.002 mg (%)
Answer format: numeric, % implied, no suffix.

See these solved cases before continuing.
Cc1cc(O)c2cc3c(O)cc(O)c4c5c(O)cc(O)c6cc7c(O)cc(C)c8c1c2c(c34)c(c78)c65    74.8
CC(=O)Oc1cc(C)c2c3c(C)cc(OC(C)=O)c4cc5c(OC(C)=O)cc(OC(C)=O)c6c7c(OC(C)=O)cc(OC(C)=O)c8cc1c2c(c87)c(c43)c56 [WIS-4, desoxohypericinhexaacetate]    70.9
O=c1c2ccccc2c2c3c1c(O)cc(O)c3c1c(O)cc(O)c3c(=O)c4ccccc4c2c31 [WIS-2, Tetrahydroxy-dibenzoperylene-dione]    99.5

O=c1c2c(O)ccc3c4ccc(O)c5c(=O)c6c(O)cc(O)c7c8c(O)cc(O)c1c8c(c23)c(c54)c67 yielded inhibition at 0.002 mg of 98.1

Given item CC(=O)Oc1cc(O)c2c(=O)c3c(O)cc(C)c4c5c(C)cc(O)c6c(=O)c7c(O)cc(OC(C)=O)c8c1c2c(c34)c(c65)c78 [WIS-6, hypericin diacetate] , the value recorded as its inhibition at 0.002 mg is 88.5

* * *

- System: Friend Leukemia Virus
- methodDescription: Inhibition of Friend Leukemia Virus-induced splenomegaly in mice, compounds intraperitoneally 24 hours after virus (Example 1(a))
- Type: in vivo, BALB/c mice
- appliedConditions: pooled over 50, 100, 200, 2 × 100 micrograms; Table III
Known Pooled Average % Inhibition of a selection of molecules
Give the quantity in %, number only.

The cases that follow already have their Pooled Average % Inhibition on record.
c1ccc2c(c1)CCc1ccccc1-2    3
O=C1c2ccc(O)cc2C(=O)c2ccc(O)cc21    50
O=C1c2ccccc2C(=O)c2cc(CO)ccc21 [Compound 35, 2-(hydroxymethyl)-anthraquinone]    70
O=C1c2ccccc2C(=O)C1c1ccccc1    51
c1ccc(C2=C(c3ccccc3)C(c3ccccc3)=C(c3ccccc3)C2)cc1    25
C=Cc1c2ccccc2cc2ccccc12    14

GET /values?item= c1ccc2cc3cc4cc5ccccc5cc4cc3cc2c1 &system= Friend Leukemia Virus returns Pooled Average % Inhibition: 12

// molecule O=C1c2ccccc2C(=C2c3ccccc3C(=O)c3ccccc32)c2ccccc21 , assay Friend Leukemia Virus, Pooled Average % Inhibition value: 52

Pooled Average % Inhibition value, target or system Friend Leukemia Virus, for Cc1ccc2cc3ccccc3cc2c1 : 30

The measured Pooled Average % Inhibition that c1ccc(-c2c3ccccc3c(-c3ccccc3)c3ccccc23)cc1 showed for Friend Leukemia Virus is 15

The value of Pooled Average % Inhibition recorded for c1ccc2c(c1)c1ccccc1c1ccccc21 when tested on Friend Leukemia Virus reads 17

# value of Pooled Average % Inhibition, Friend Leukemia Virus, item O=C1C(c2ccccc2)=C(c2ccccc2)C(c2ccccc2)=C1c1ccccc1 = 16

Short answer on Friend Leukemia Virus for Cc1cc(O)c2c(c1)C(=O)c1cc(O)cc(O)c1C2=O , Pooled Average % Inhibition: 38

Record c1cc2c3c(ccc4c3c1CCC4)CCC2 [Compound 23, 1,2,3,6,7,8-Hexahydropyrene] has Friend Leukemia Virus Pooled Average % Inhibition equal to 25

Record O=C1c2ccccc2Cc2ccccc21 / Friend Leukemia Virus, Pooled Average % Inhibition recorded as 53

Observed Pooled Average % Inhibition, Friend Leukemia Virus, c1cc2cccc3c4cccc5cccc(c(c1)c23)c54 : 9

Fill in: Friend Leukemia Virus Pooled Average % Inhibition for C1=CCC2=C(C1)CC1=C(CC=CC1)C2 [Compound 21, 1,4,5,8,9,10-Hexahydroanthracene] = 17

* * *

- Tested on: Friend Leukemia Virus
- methodDescription: Inhibition of Friend Leukemia Virus-induced splenomegaly in mice, compounds intraperitoneally 24 hours after virus (Example 1(a))
- Assay type: in vivo, BALB/c mice
- appliedConditions: Mus musculus, ip, read-out: Average Perdosage % Inhibition, dose 50 (micrograms) i.p.; Table III
Please enter satisfied where inhibition in vivo at 0.05 mg is greater than or equal to 30%, and not satisfied where it is lower.

The following compounds have reported results that may help.
c1ccc(-c2c3ccccc3c(-c3ccccc3)c3ccccc23)cc1 [Compound 22, 9,10-Diphenylanthracene]    satisfied
c1cc2cccc3c4cccc5cccc(c(c1)c23)c54 [Compound 27, Perylene]    not satisfied
C=Cc1c2ccccc2cc2ccccc12 [Compound 29, 9-Vinylanthracene]    not satisfied
O=C1c2ccccc2C(=O)c2cc(CO)ccc21 [Compound 35, 2-(hydroxymethyl)-anthraquinone]    satisfied
Cc1ccc2cc3ccccc3cc2c1 [Compound 25, 2-Methylanthracene]    not satisfied

Q: Given the entry O=c1c2ccccc2oc2ccccc12 [Compound 31, Xanthone] , answer whether its inhibition in vivo at 0.05 mg meets or surpasses 30%.
Result: satisfied

Q: Textbook exercise: given the entry c1ccc2c(c1)c1ccccc1c1ccccc21 [Compound 19, Triphenylene] , state whether its inhibition in vivo at 0.05 mg is greater than or equal to 30%.
Result: satisfied

* * *

- testTarget: Radiation Leukemia Virus reverse transcriptase (Radiation murine leukemia virus)
- Construct: the reverse transcriptase of Radiation Leukemia Virus; endogenous in cells
- methodDescription: Radiation Leukemia Virus reverse transcriptase assay, supernatants from infected AQR cells (Examples 4 and 9)
- Format: biochemical
- appliedConditions: 0.5 h; 1 microgram; Table VIII
experimentalEndpoint: inhibition at 0.001 mg
# output: number + unit

Field inhibition at 0.001 mg (Radiation Leukemia Virus reverse transcriptase (Radiation murine leukemia virus)), entry CC(=O)Oc1cc(C)c2c3c(C)cc(OC(C)=O)c4cc5c(OC(C)=O)cc(OC(C)=O)c6c7c(OC(C)=O)cc(OC(C)=O)c8cc1c2c(c87)c(c43)c56 [WIS-4, desoxohypericinhexaacetate] : 77.9%

Noted inhibition at 0.001 mg for Cc1cc(O)c2cc3c(O)cc(O)c4c5c(O)cc(O)c6cc7c(O)cc(C)c8c1c2c(c34)c(c78)c65 [WIS-5, desoxyhypericin] , tested on Radiation Leukemia Virus reverse transcriptase (Radiation murine leukemia virus): 69.2%

The measured inhibition at 0.001 mg that O=c1c2ccccc2c2c3c1c(O)cc(O)c3c1c(O)cc(O)c3c(=O)c4ccccc4c2c31 [WIS-2, Tetrahydroxy-dibenzoperylene-dione] showed for Radiation Leukemia Virus reverse transcriptase (Radiation murine leukemia virus) is 98.7%

Result for O=c1c2c(O)ccc3c4ccc(O)c5c(=O)c6c(O)cc(O)c7c8c(O)cc(O)c1c8c(c23)c(c54)c67 [WIS-3, desmethylhypericin] , tested on Radiation Leukemia Virus reverse transcriptase (Radiation murine leukemia virus), inhibition at 0.001 mg: 97%

# lookup: CC(=O)Oc1cc(O)c2c(=O)c3c(O)cc(C)c4c5c(C)cc(O)c6c(=O)c7c(O)cc(OC(C)=O)c8c1c2c(c34)c(c65)c78 [WIS-6, hypericin diacetate] on Radiation Leukemia Virus reverse transcriptase (Radiation murine leukemia virus), inhibition at 0.001 mg = 81.2%

* * *

- testTarget: Radiation Leukemia Virus reverse transcriptase (Radiation murine leukemia virus, UniProt P11227)
- Construct: the reverse transcriptase of Radiation Leukemia Virus; endogenous in cells
- methodDescription: Radiation Leukemia Virus reverse transcriptase assay, supernatants from infected AQR cells (Examples 4 and 9)
- Format: biochemical
- appliedConditions: 1 microgram; Table VIII
experimentalEndpoint: Average CPM

# example entries with known answers
Cc1cc(O)c2cc3c(O)cc(O)c4c5c(O)cc(O)c6cc7c(O)cc(C)c8c1c2c(c34)c(c78)c65    251,168 CPM
O=c1c2c(O)ccc3c4ccc(O)c5c(=O)c6c(O)cc(O)c7c8c(O)cc(O)c1c8c(c23)c(c54)c67    24,606 CPM
CC(=O)Oc1cc(O)c2c(=O)c3c(O)cc(C)c4c5c(C)cc(O)c6c(=O)c7c(O)cc(OC(C)=O)c8c1c2c(c34)c(c65)c78 [WIS-6, hypericin diacetate]    153,363 CPM

Alright, here's another molecule for you.
# molecule CC(=O)Oc1cc(C)c2c3c(C)cc(OC(C)=O)c4cc5c(OC(C)=O)cc(OC(C)=O)c6c7c(OC(C)=O)cc(OC(C)=O)c8cc1c2c(c87)c(c43)c56 [WIS-4, desoxohypericinhexaacetate] ; its Average CPM = 180,180 CPM
